// reported Emax at 1000 µM for each item listed
Tested on: Thoracic aorta
Assay: Vasorelaxing effect in endothelium-denuded Wistar rat thoracic aorta ring assessed as reduction in KCl-induced contractile tone at 1 mM relative to KCl
Format: functional

SMILES RECORD: N=C(SCc1ccccc1)c1ccc(O)cc1
Emax at 1000 µM, %: 82.1
//
SMILES RECORD: S=C(NCc1ccccc1)c1cccs1
Emax at 1000 µM, %: 91.7
//
SMILES RECORD: N=C(SCc1ccccc1)c1ccccc1
Emax at 1000 µM, %: 86.5
//
SMILES RECORD: COc1ccc(C(=N)SCc2ccccc2)cc1
Emax at 1000 µM, %: 89.9
